Ref: PubChem BioAssay (NCATS)

molecular target: Luciferin 4-monooxygenase (Photinus pyralis) (UniProt P08659); test: Primary firefly luciferase (FLuc) qHTS assay for identification of artifact compounds. (AID 1845220); conditions: purified firefly luciferase, luminescence, 5 min; series mostly up to 54.1 µM; note: nearly all actives have a fitted effect of over 60% in size;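 for activity change, negative = inhibition: plate controls were DMSO vehicle for no effect and no enzyme for full effect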
The source made the active and inactive calls. Calls come from the whole dose curve; as a rule, active = well fitted inhibition curve with a large enough effect; inconclusive = small, poorly fitted or top-dose-only effect; inactive = flat fitted curve, though single readings scatter.
Measured attribute: activity change, negative = inhibition

Some solved entries appear below for comparison.
CSC(=O)OCC1=C[C@@H]2OC(=O)C3=CO[C@@H](O[C@@H]4O[C@H](CO)[C@@H](O)[C@H](O)[C@H]4O)[C@H]1[C@@H]32 | inactive
CCN(CCN(C)C)C(=O)CNCc1cc(C(N)=O)ccn1 | inactive
CC(C)(OC1OC(CO)C(O)C(O)C1O)C1CCC(O)(CO)C2CC(=O)C(C)(O)C2C1 (stereo unspecified) | inactive
CC1CC(=O)C2=C(O1)OC1(C)CCC3C(C)(C)C4OC4C(=O)C3(C)C1C2 (stereo unspecified) | inactive
Cc1cc(-n2c(=O)[nH]c(=O)n(C)c2=O)ccc1Oc1ccc(SC(F)(F)F)cc1 | inactive

Now consider a different compound.
The compound listed as C[C@@H]1O[C@@H](O[C@H]2[C@H](OC(=O)[C@]34CCC(C)(C)C[C@H]3C3=CCC5[C@@]6(C)CC[C@H](O[C@@H]7O[C@H](CO[C@@H]8OC[C@H](O)[C@H](O)[C@H]8O)[C@@H](O)[C@H](O)[C@H]7O)C(C)(C)C6CC[C@@]5(C)[C@]3(C)C[C@H]4O)OC[C@@H](O)[C@@H]2O)[C@H](O)[C@H](O[C@@H]2OC[C@](O)(CO)[C@H]2O)[C@H]1O[C@@H]1OC[C@H](O)[C@H](O[C@@H]2OC[C@@H](O)[C@H](O)[C@H]2O)[C@H]1O (stereo partly specified) has a reported activity change, negative = inhibition of -1.94% [at 11.6 µM] (inactive)

----------
tested on: Es-2; experiment: Primary qHTS to identify gynecologic anti-cancer compounds using libraries of approved drugs and bioactive compounds (AID 1345084); settings: Gynecologic cancer cell panel viability, ATPlite luminescence, 48 h; series mostly up to 57.5 µM; note: % is set by controls: 0 for no effect and ±100 for the full control effect; nearly all actives have a fitted effect of over 55% in size
Records with an inconclusive call do not appear. The source made the active and inactive calls. Calls come from the whole dose curve; as a rule, active = well fitted cell-killing curve with a large enough effect; inconclusive = small, poorly fitted or top-dose-only effect, or effect the other way; inactive = flat fitted curve, though single readings scatter.
Measured attribute: activity change, negative = cytotoxicity

C[C@]12CCC[C@](C)(C(=O)O)C1CCC13CC(CO)C(CCC12)C3 (stereo not given in full) | inactive
CC1(C)O[C@H]2CC(=O)OC[C@@]23C1=C(O)C(=O)[C@]1(C)C3CC[C@@]2(C)[C@H](c3ccoc3)OC(=O)[C@H]3O[C@]321 (stereo not given in full) | inactive
O=C(O)c1cc(C(F)(F)F)ccc1N1CC[C@H](OCc2ccccn2)C1 | inactive
CC1=COC(OC2OC(CO)C(O)C(O)C2O)C2C(CO)CC(OC(=O)/C=C/c3ccc(O)cc3)C12 (stereo not given) | inactive

# activity change, negative = cytotoxicity of O=C(Nc1cc(-c2ccccc2)nn1-c1ccccc1)c1ccc([N+](=O)[O-])cc1 = inactive

Noted for O=C(NC/C=C/CN1CCN(c2cccc(Cl)c2Cl)CC1)c1ccc(-c2ccccn2)cc1 : its activity change, negative = cytotoxicity reads inactive

Data point: CC(=O)OCC1OC(OC2COC(OC3COC(OC4C(OC5C(CO)OC(OC6CCC7(C)C(CCC8(C)C7CC=C7C9CC(C)(C)CCC9(C(=O)OC9OC(CO)C(O)C(O)C9OC9OCC(OC%10OCC(O)(CO)C%10O)C(O)C9O)C(O)CC78C)C6(C)C)C(O)C5O)OCC(O)C4O)C(O)C3O)C(O)C2O)C(OC(=O)/C=C/c2ccccc2)C(O)C1OC(C)=O (stereo not given) ; activity change, negative = cytotoxicity = -4.41% [at 6.55 µM] (inactive)

So, CC1(C)CCCC2(C)c3c4c(c(=O)oc(=O)c3=CCC12)=CCC1C(C)(C)CCCC41C (stereo not given) ? Its activity change, negative = cytotoxicity was inactive

Consider COc1cc(C)c(C(=O)OC2C(C)OC(OC3CCC(C)C4C3C=C(C)C3/C(C)=C\CC/C(C)=C/C5(C)C=C(C(=O)O)C(C)CC56OC(=O)/C(=C(\O)C34C)C6=O)C(O)C2O)c(OC)c1 (stereo not given) . Its measured activity change, negative = cytotoxicity is 6.73% [at 11.6 µM] (inactive)

compound N#Cc1cc(-c2n[nH]c(-c3ccncc3)n2)ccn1 , activity change, negative = cytotoxicity observed: inactive

Briefly, activity change, negative = cytotoxicity measured for COc1ccc(CCC(=O)O)c(O[C@@H]2O[C@H](CO)[C@@H](O)[C@H](O)[C@H]2O)c1 : inactive

Sample Cc1cn2cc(CC(=O)N3CCC4(CC3)CN(Cc3ccc(-n5nccn5)cc3Cl)C4)nc2s1 ; activity change, negative = cytotoxicity observed: inactive

// activity change, negative = cytotoxicity value for C/C=C(\C)C1C(C)=CC2CCC(OS(=O)(=O)O)C(C)C2C1/C=C/C=C/C(=O)O (stereo not given) : inactive

Value of measured activity change, negative = cytotoxicity for the entry CC(C)=CC1C[C@](C)(O)[C@@H]2[C@H]3CCC4[C@@]5(C)CC[C@H](O[C@@H]6OC[C@H](O)[C@H](O[C@@H]7O[C@H](CO[C@@H]8O[C@H](CO)[C@@H](O)[C@H](O)[C@H]8O)[C@@H](O)[C@H](O)[C@H]7O)[C@H]6O[C@@H]6O[C@@H](C)[C@H](O)[C@@H](O)[C@H]6O)C(C)(C)[C@@H]5CC[C@@]4(C)[C@@]34CO[C@@]2(C4)O1 (stereo not given in full) : 11.4% [at 11.6 µM] (inactive)

activity change, negative = cytotoxicity recorded for this compound, COc1cccc(CN(C(=O)CC(C)(C)C)C2CC(C(=O)N3CCNCC3)N(Cc3ccc4c(c3)OCO4)C2)c1 (stereo not given) , is inactive

Just so you know, measured activity change, negative = cytotoxicity for COc1ccc(-n2c(=O)[nH]c3cc(C(=O)NCc4ccc(Cl)cc4)sc3c2=O)nc1OC came out at inactive

Just so you know, measured activity change, negative = cytotoxicity for CC(C)[C@@](O)(c1ccc2cc(OC(F)F)c(OC(F)F)cc2c1)c1cn[nH]n1 came out at inactive

Reported activity change, negative = cytotoxicity for NC(Cc1c[nH]c2ccc(O)cc12)C(=O)O (stereo not given) was inactive

Looking up Cc1c(NC(=O)N2CCOCC2)ccc2c1c1ccccc1n2C(C)C , I see its activity change, negative = cytotoxicity listed as inactive

Summary for this compound, CC1(C)C[C@H](O)C[C@@]2(C)[C@H]1[C@H](O)C=C1COC(=O)[C@@]12O : activity change, negative = cytotoxicity is inactive
